- TEST_SYSTEM: long form of human GPR120 (Homo sapiens)
- Sequence (Q5NUL3 1-377 isoform Q5NUL3-1): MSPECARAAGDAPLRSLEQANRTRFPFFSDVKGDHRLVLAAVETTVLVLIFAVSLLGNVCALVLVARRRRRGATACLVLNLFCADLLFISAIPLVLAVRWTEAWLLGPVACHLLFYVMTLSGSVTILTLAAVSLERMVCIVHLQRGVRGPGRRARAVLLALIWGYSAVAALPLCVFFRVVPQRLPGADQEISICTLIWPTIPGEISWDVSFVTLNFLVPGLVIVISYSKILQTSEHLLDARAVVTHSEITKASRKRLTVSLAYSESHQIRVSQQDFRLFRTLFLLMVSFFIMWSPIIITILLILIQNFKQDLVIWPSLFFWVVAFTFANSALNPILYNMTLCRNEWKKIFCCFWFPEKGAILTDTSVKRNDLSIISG
- Sequence (P32121 whole entry partner): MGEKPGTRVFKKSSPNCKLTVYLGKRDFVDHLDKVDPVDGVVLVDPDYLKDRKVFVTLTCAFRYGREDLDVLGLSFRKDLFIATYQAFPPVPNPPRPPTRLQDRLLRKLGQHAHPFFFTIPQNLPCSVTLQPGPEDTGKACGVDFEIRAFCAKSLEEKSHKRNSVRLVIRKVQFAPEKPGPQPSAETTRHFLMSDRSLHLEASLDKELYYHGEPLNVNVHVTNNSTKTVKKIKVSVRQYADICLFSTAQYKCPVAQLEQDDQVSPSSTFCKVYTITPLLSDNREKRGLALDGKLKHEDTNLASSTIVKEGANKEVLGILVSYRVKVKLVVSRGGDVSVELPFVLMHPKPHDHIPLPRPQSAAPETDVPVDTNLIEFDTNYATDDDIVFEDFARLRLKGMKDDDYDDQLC
- ASSAY_PROCEDURE: Human GPR120 DiscoveRx PathHunter Beta-Arrestin assay, Procedure β-arrestin A
- CONDITION_DESCRIPTION: PathHunter CHO-K1 GPR120 β-Arrestin cell line, 3000 cells per well, read-out: hGPR120 β-arrestin A EC50
- Excerpt: The binding of an agonist (medium/long chain fatty acids or small molecule agonists) to the G-protein-coupled receptor GPR120 activates phospholipase C, leading to release of intracellular Ca^+2 through the generation of inositol 1,4,5-trisphosphate (InsP3 or IP3). […] In the present method, agonist-induced activation of the human GPR120 receptor is monitored through the use of PathHunter CHO-K1 GPR120 Beta-Arrestin Cell Line engineered by DiscoveRx, as detailed below. […]
pEC50: −log10 of the molar value.
Below, each of the molecules is paired with its reported pEC50 value.

>  <STRUCTURE_SMILES_STRING>
CCc1ccc(-c2cc(Cl)sc2COc2ccc(CCC(=O)O)c(F)c2F)cc1

>  <pEC50>
6.65

$$$$
>  <STRUCTURE_SMILES_STRING>
O=C(O)CCc1cc(F)c(OCc2c(-c3ccc(Cl)cc3)nsc2C(F)(F)F)c(F)c1F

>  <pEC50>
6.95

$$$$
>  <STRUCTURE_SMILES_STRING>
Cc1c(CCC(=O)O)ccc(OCc2c(-c3ccccc3)nsc2C(F)(F)F)c1C

>  <pEC50>
6.60

$$$$
>  <STRUCTURE_SMILES_STRING>
O=C(O)CCc1cc(F)c(OCc2c(Cl)nsc2-c2ccc(Cl)cc2F)c(F)c1

>  <pEC50>
6.53

$$$$
>  <STRUCTURE_SMILES_STRING>
Cc1cc(CCC(=O)O)ccc1OCc1c(-c2ccc(Cl)cc2)nsc1C(F)(F)F

>  <pEC50>
6.52

$$$$
>  <STRUCTURE_SMILES_STRING>
COc1nsc(-c2ccc(C)cc2F)c1COc1c(F)cc(CCC(=O)O)cc1F

>  <pEC50>
6.52

$$$$
>  <STRUCTURE_SMILES_STRING>
CCc1ccc(-c2sc(C)c(C(F)(F)F)c2COc2c(F)cc(CCCO)cc2F)cc1

>  <pEC50>
7.51

$$$$
>  <STRUCTURE_SMILES_STRING>
COc1ccc(-c2snc(Cl)c2COc2c(F)cc(CCC(=O)O)cc2F)cc1

>  <pEC50>
6.47

$$$$
>  <STRUCTURE_SMILES_STRING>
OCCCc1ccc(OCc2sc(Cl)cc2-c2ccc(Cl)cc2)c(F)c1F

>  <pEC50>
6.61

$$$$
